biological target: Angiotensin II-Rezeptor (Rattus norvegicus, UniProt P25095)
Sequence (P25095 whole entry): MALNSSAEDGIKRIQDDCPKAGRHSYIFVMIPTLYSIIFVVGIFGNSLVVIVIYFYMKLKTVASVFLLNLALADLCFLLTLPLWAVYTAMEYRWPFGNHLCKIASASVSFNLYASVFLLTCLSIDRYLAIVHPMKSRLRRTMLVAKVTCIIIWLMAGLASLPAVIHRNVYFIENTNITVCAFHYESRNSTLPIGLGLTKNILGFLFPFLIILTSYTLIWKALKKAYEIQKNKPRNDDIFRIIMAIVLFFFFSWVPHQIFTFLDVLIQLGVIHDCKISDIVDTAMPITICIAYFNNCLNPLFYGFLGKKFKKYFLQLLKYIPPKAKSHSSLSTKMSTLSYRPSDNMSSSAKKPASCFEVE
readout.name: IC50 (nM)

Known IC50 results, listed for orientation:
input_smiles=CCCc1nc2c(C)cc(-c3nc4c(n3CC(=O)O)CCCC4)cc2n1Cc1ccc(-c2ccccc2C(=O)O)cc1 subject_of_test="Angiotensin II-Rezeptor (Rattus norvegicus, UniProt P25095)" reported=38
input_smiles=CCCc1nc2c(C)cc(-c3nc4c(n3C)CCCC4)cc2n1Cc1ccc(-c2ccccc2-c2nnn[nH]2)cc1 subject_of_test="Angiotensin II-Rezeptor (Rattus norvegicus, UniProt P25095)" reported=2.6

1. CCCc1nc2c(C)cc(-c3nc4c([nH]3)CCCC4)cc2n1Cc1ccc(-c2ccccc2C(=O)O)cc1
2. CCc1nc2c(C)cc(-c3nc4c(n3CC)CCCC4)cc2n1Cc1ccc(-c2ccccc2-c2nnn[nH]2)cc1
3. CCCc1nc2c(C)cc(-c3nc(-c4ccccc4)c(C)n3C)cc2n1Cc1ccc(-c2ccccc2C(=O)O)cc1
4. CCCc1nc2c(C)cc(-c3nc4c(n3Cc3ccccc3)CCCC4)cc2n1Cc1ccc(-c2ccccc2C(=O)O)cc1
Sort low-to-high on IC50, please. I would appreciate it if you listed the labels in the requested order.
2, 3, 4, 1
(2: 1.6 nM, 3: 3.2 nM, 4: 6 nM, 1: 12 nM)
